Test system: counterscreen cell line, fluorescence, non-specific activators
test name: non-specific activators in counterscreen cell line, dose response, counter-screen for GalR3 antagonist project, fluorescence, late stage (AID 743092)
Calls of active or inactive are those of the source. No rule for the calls is given here.
Measured IC50 of individual entries

As a guide, the following entries are already answered.
[[record]]
compound = "CC(C)(C)CN1CCN(Cc2nc(-c3ccc(F)cc3)cs2)CC1CCO (stereo not drawn)"
parameter_measured = "IC50"
reported_result = "> 29.9 µM (inactive)"

[[record]]
compound = "Cc1[nH]c(=O)c(C#N)cc1-c1ccccc1"
parameter_measured = "IC50"
reported_result = "> 29.9 µM (inactive)"

[[record]]
compound = "CC(=O)c1ccc(N2CCN(C(=S)Nc3ccc(Oc4ccccc4)cc3)CC2)cc1"
parameter_measured = "IC50"
reported_result = "> 29.9 µM (inactive)"

[[record]]
compound = "CC(C)(C)c1ccc(-n2ncc3c2CCCC3NC(=O)C2(C(N)=O)CC2)cc1 (stereo not drawn)"
parameter_measured = "IC50"
reported_result = "> 29.9 µM (inactive)"

[[record]]
compound = "CCOc1cc(S(=O)(=O)NCc2ccncc2)ccc1Cl"
parameter_measured = "IC50"
reported_result = "> 29.9 µM (inactive)"

[[record]]
compound = "Cc1cc(C)nc(SCC(=O)Nc2ccnc3ccccc23)n1"
parameter_measured = "IC50"
reported_result = "> 29.9 µM (inactive)"

[[record]]
compound = "COc1ccc(CCNc2ncnc3sccc23)cc1OC"
parameter_measured = "IC50"
reported_result = "> 29.9 µM (inactive)"

[[record]]
compound = "CNc1ccccc1C(C)(C)c1cc(-c2ccc(F)cc2)no1"
parameter_measured = "IC50"
reported_result = "19.6 µM (inactive)"

[[record]]
compound = "COc1ccc(C(=O)CSc2nnc(Cn3cnc4ccccc43)o2)cc1"
parameter_measured = "IC50"
reported_result = "> 29.9 µM (inactive)"

[[record]]
compound = "CCCOc1ccc(CSc2nc3ccccc3[nH]2)cc1"
parameter_measured = "IC50"
reported_result = "> 29.9 µM (inactive)"


Fill in: IC50 of Cc1cc(CSc2ccccc2)ccc1NC(=O)c1ccc(CN2CCOCC2)cc1 is ___
> 29.9 µM (inactive)

Fill in: IC50 of CC(=O)c1cn(CC(=O)NCCc2c[nH]c3ccccc23)c2ccccc12 is ___
> 29.9 µM (inactive)

Fill in: IC50 of Cn1nc(C(C)(C)C)cc1C(=O)NCc1ccc(N2CCCC2=O)cc1 is ___
> 29.9 µM (inactive)

Fill in: IC50 of CC1(C)CC2CC(C)(CN2S(=O)(=O)c2ccc(C(=O)Nc3cccc(S(=O)(=O)N4CCOCC4)c3)cc2)C1 (stereo not drawn) is ___
> 29.9 µM (inactive)

Fill in: IC50 of Cc1oc(-c2ccc(Cl)cc2)nc1CSCC(=O)NC1CCN(Cc2ccccc2)CC1 is ___
26.8 µM (inactive)

Fill in: IC50 of S=C(NCCc1ccccc1)Nc1cccc2cnccc12 is ___
> 29.9 µM (inactive)

Fill in: IC50 of CSc1ccc(C(=O)C2CCCN(C(=O)CCc3c(C)nn(C)c3C)C2)cc1 (stereo not drawn) is ___
> 29.9 µM (inactive)
